Molecular target: 5-HT2A receptor (Rattus norvegicus, UniProt P14842)
Sequence (P14842 whole entry): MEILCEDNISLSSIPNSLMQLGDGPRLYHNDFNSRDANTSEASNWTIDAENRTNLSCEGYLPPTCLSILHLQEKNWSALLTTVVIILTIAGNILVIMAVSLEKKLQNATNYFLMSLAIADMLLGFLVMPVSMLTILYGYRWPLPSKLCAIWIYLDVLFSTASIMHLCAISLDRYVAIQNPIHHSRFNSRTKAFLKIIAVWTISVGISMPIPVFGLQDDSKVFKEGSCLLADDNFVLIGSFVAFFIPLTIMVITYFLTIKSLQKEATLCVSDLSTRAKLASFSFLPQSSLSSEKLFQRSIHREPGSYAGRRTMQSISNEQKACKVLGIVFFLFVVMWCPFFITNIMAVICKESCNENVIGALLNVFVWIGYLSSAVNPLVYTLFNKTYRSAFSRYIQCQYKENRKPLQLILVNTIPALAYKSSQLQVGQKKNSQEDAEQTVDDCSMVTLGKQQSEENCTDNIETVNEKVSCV
Assay: 5HT2A receptor binding assay ([3H]-Ketanserin, rat brain striatum membrane)
Conditions: test compound final concentration 10^−5 M; [3H]-Ketanserin; rat brain striatum membrane; read-out: 5HT2A inhibition %
readout: inhibition at 10 µM (%)
Provide the reading as a plain figure in %.

Look over these answered cases.
molecule	target.or.system	inhibition at 10 µM, %
CCc1cc(=O)oc2cc(OCCCCN3CCC(c4noc5cc(F)ccc45)CC3)ccc12 [Compound 27]	5-HT2A receptor (Rattus norvegicus, UniProt P14842)	124
Cc1cc(=O)oc2c(Cl)c(OCCCCN3CCN(c4nsc5ccccc45)CC3)ccc12 [Compound 20]	5-HT2A receptor (Rattus norvegicus, UniProt P14842)	15.5
O=c1cc(-c2ccccc2)c2ccc(OCCCCN3CCN(c4nsc5ccccc45)CC3)cc2o1 [Compound 14]	5-HT2A receptor (Rattus norvegicus, UniProt P14842)	83.4

Record CCCc1cc(=O)oc2cc(OCCCCN3CCN(c4nsc5ccccc45)CC3)ccc12 [Compound 26] has 5-HT2A receptor (Rattus norvegicus, UniProt P14842) inhibition at 10 µM equal to 129
